Tested on: Echinochloa crus-galli (ECHCG)
method: Example A post-emergence herbicidal activity, glasshouse pot test
Type: in vivo
experimental_context: 360 h, rate 125 g/ha, evaluated 15 days after spraying, read-out: Post-emergence activity ECHCG (100=total damage to plant; 0=no damage to plant)
Protocol: Seeds of a variety of test species were sown in standard soil in pots. […] The test plants were then grown in a greenhouse under optimum conditions until, 15 days later for post-emergence and 20 days for pre-emergence, the test was evaluated (100=total damage to plant; 0=no damage to plant). […]
pest or weed control at 125 g/ha reference
Supply the numeric figure in %, leaving out any unit text.

// below: answered compounds
1) CCc1ccc(-c2ccc(Cl)cc2)cc1C1=C(O)C(C)(C)C(=O)C(C)(C)C1=O
100
2) Cc1ccc(-c2ccc(C(F)(F)F)cc2)cc1C1=C(O)C(C)(C)OC(C)(C)C1=O
100
3) Cc1ccc(-c2ccc(Cl)c(C(F)(F)F)c2)cc1C1=C(O)C(C)(C)OC(C)(C)C1=O
90

Recorded result, CCc1ccc(-c2ccc(Cl)c(F)c2)cc1C1=C(O)C(C)(C)OC(C)(C)C1=O , pest or weed control at 125 g/ha: 100

Recorded result, Cc1cc(-c2ccc(C)c(C3=C(O)C(C)(C)OC(C)(C)C3=O)c2)ccc1Cl , pest or weed control at 125 g/ha: 90

Recorded result, Cc1ccc(-c2ccc(Cl)c(F)c2)cc1C1=C(O)C(C)(C)OC(C)(C)C1=O , pest or weed control at 125 g/ha: 100

Recorded result, CCc1ccc(-c2ccc(Cl)cc2)cc1C1=C(O)C(C)(CC)OC(C)(CC)C1=O (stereo not drawn) , pest or weed control at 125 g/ha: 100

Recorded result, CCc1ccc(-c2ccc(Cl)cc2)cc1C1=C(O)C(C)(C)SC(C)(C)C1=O , pest or weed control at 125 g/ha: 100

Recorded result, Cc1ccc(-c2ccc(F)cc2)cc1C1=C(O)C(C)(C)OC(C)(C)C1=O , pest or weed control at 125 g/ha: 80

Recorded result, Cc1ccc(-c2ccc(Cl)cc2)cc1C1=C(O)COCC1=O , pest or weed control at 125 g/ha: 70

Recorded result, CCc1ccc(-c2ccc(F)cc2)cc1C1=C(O)[C@@]2(C)CC[C@H](O2)C1=O , pest or weed control at 125 g/ha: 90

Recorded result, CCCCC(=O)OC1=C(c2cc(-c3ccc(Cl)cc3)ccc2CC)C(=O)C(C)(C)OC1(C)C , pest or weed control at 125 g/ha: 90

Recorded result, Cc1ccc(-c2ccc(Cl)cc2)cc1C1=C(O)[C@@]2(C)CC[C@](C)(O2)C1=O , pest or weed control at 125 g/ha: 100

Recorded result, CCc1ccc(-c2ccc(Cl)cc2)cc1C1=C(O)C(C)(C)OC(C)(CC)C1=O (single isomer, unassigned) , pest or weed control at 125 g/ha: 100

Recorded result, CCc1ccc(-c2ccc(Cl)cc2)cc1C1=C(O)C(C)(C)[S+]([O-])C(C)(C)C1=O (stereo not drawn) , pest or weed control at 125 g/ha: 100

* * *

System: Alopecurus myosuroides (ALOMY)
method: Example A post-emergence herbicidal activity, glasshouse pot test
Type: in vivo
experimental_context: 360 h, rate 125 g/ha, evaluated 15 days after spraying, read-out: Post-emergence activity ALOMY (100=total damage to plant; 0=no damage to plant)
pest or weed control at 125 g/ha reference
Supply the numeric figure in %, leaving out any unit text.

// below: answered molecules
1) CCc1ccc(-c2ccc(Cl)c(Cl)c2)cc1C1=C(O)C(C)(C)OC(C)(C)C1=O
80
2) CCc1ccc(-c2ccc(Cl)c(F)c2)cc1C1=C(O)C(C)(C)OC(C)(C)C1=O
80

Next molecule, pest or weed control at 125 g/ha to be filled in.
Recorded result, CCc1ccc(-c2ccc(Cl)cc2)cc1C1=C(O)C(C)(CC)OC(C)(CC)C1=O (stereo not drawn) , pest or weed control at 125 g/ha: 80

* * *

System: Alopecurus myosuroides (ALOMY)
method: Example A post-emergence herbicidal activity, glasshouse pot test
Format: in vivo
experimental_context: 360 h, rate 125 g/ha, evaluated 15 days after spraying, read-out: Post-emergence activity ALOMY (100=total damage to plant; 0=no damage to plant)
Each record is given 1 (yes) if its reported pest or weed control at 125 g/ha is strictly below 40%. Records at or above 40% are given 0 (no).

Take a look at these entries with their results.
1. CCc1ccc(-c2ccc(Cl)cc2)cc1C1=C(O)C(C)(C)C(=O)C(C)(C)C1=O
1 (yes)
2. CCc1ccc(-c2ccc(Cl)cc2)cc1C1=C(O)C(C)(C)S(=O)(=O)C(C)(C)C1=O
0 (no)
3. Cc1ccc(-c2ccc(Cl)cc2C)cc1C1=C(O)C(C)(C)OC(C)(C)C1=O
1 (yes)

Please let me know if Cc1ccc(-c2ccc(F)cc2)cc1C1=C(O)C(C)(C)OC(C)(C)C1=O shows pest or weed control at 125 g/ha below 40%.
0 (no)

Please let me know if COC(=O)OC1=C(c2cc(-c3ccc(Cl)cc3)ccc2C)C(=O)C(C)(C)OC1 shows pest or weed control at 125 g/ha below 40%.
1 (yes)

Please let me know if Cc1ccc(-c2ccc(Cl)cc2)cc1C1=C(O)[C@@]2(C)CC[C@](C)(O2)C1=O shows pest or weed control at 125 g/ha below 40%.
0 (no)

Please let me know if Cc1ccc(-c2ccc(C(F)(F)F)cc2)cc1C1=C(O)C(C)(C)OC(C)(C)C1=O shows pest or weed control at 125 g/ha below 40%.
1 (yes)

Please let me know if Cc1ccc(-c2ccc(Cl)cc2Cl)cc1C1=C(O)C(C)(C)OC(C)(C)C1=O shows pest or weed control at 125 g/ha below 40%.
0 (no)

Please let me know if Cc1ccc(-c2ccc(Cl)c(Cl)c2)cc1C1=C(O)C(C)(C)OC(C)(C)C1=O shows pest or weed control at 125 g/ha below 40%.
0 (no)

Please let me know if CCc1ccc(-c2ccc(F)cc2)cc1C1=C(O)[C@@]2(C)CC[C@H](O2)C1=O shows pest or weed control at 125 g/ha below 40%.
0 (no)

* * *

pest or weed control at 250 g/ha reference
System: Amaranthus retroflexus (AMARE)
method: Example B post-emergence herbicidal activity, glasshouse pot test
Format: in vivo
experimental_context: 312 h, rate 250 g/ha, evaluated after 13 days, read-out: Post-emergence activity AMARE (100=total damage to plant; 0=no damage to plant)
Supply the numeric figure in %, leaving out any unit text.

// below: answered compounds
1) CCOc1ccc(-c2ccc(Cl)cc2)cc1C1=C(O)C(C)(C)OC(C)(C)C1=O
0
2) CCc1ccc(-c2cc(F)c(Cl)c(F)c2)cc1C1=C(O)C(C)(C)OC(C)(C)C1=O
0
3) CCc1ccc(-c2cc(Cl)c(Cl)c(Cl)c2)cc1C1=C(O)C(C)(C)OC(C)(C)C1=O
50

Next compound, pest or weed control at 250 g/ha to be filled in.
Recorded result, CCc1ccc(-c2ccc(Cl)c(F)c2)cc1C1=C(O)C(C)(C)C(=O)C(C)(C)C1=O , pest or weed control at 250 g/ha: 30

* * *

System: Alopecurus myosuroides (ALOMY)
method: Example B post-emergence herbicidal activity, glasshouse pot test
Assay type: in vivo
experimental_context: 312 h, rate 250 g/ha, evaluated after 13 days, read-out: Post-emergence activity ALOMY (100=total damage to plant; 0=no damage to plant)
Each record is given Condition met if its reported pest or weed control at 250 g/ha is strictly below 90%. Records at or above 90% are given Condition not met.

1) COc1ccc(-c2ccc(Cl)c(F)c2)cc1C1=C(O)C(C)(C)OC(C)(C)C1=O [Compound A-96]
Condition met
2) Cc1cc(C)c(-c2ccc(Cl)cc2)c(C)c1C1=C(O)C(C)(C)OC(C)(C)C1=O [Compound A-92]
Condition met
3) CCc1ccc(-c2ccc(Cl)cc2)cc1C1=C(O)[C@@]2(C)C=C[C@H](O2)C1=O [Compound A-62]
Condition met

Please let me know if CC1(C)OC(C)(C)C(O)=C(c2cc(-c3ccc(Cl)cc3F)ccc2Cl)C1=O [Compound A-141] shows pest or weed control at 250 g/ha below 90%.
Condition met

Please let me know if CCOC[C@]12CC[C@H](O1)C(=O)C(c1cc(-c3ccc(Cl)c(F)c3)ccc1CC)=C2O (single isomer, unassigned) [Compound A-126] shows pest or weed control at 250 g/ha below 90%.
Condition met

Please let me know if CCc1ccc(-c2ccc(Cl)c(F)c2Cl)cc1C1=C(O)C(C)(C)OC(C)(C)C1=O [Compound A-138] shows pest or weed control at 250 g/ha below 90%.
Condition not met

Please let me know if C#Cc1ccc(-c2ccc(CC)c(C3=C(O)C(C)(C)OC(C)(C)C3=O)c2)cc1 [Compound A-98] shows pest or weed control at 250 g/ha below 90%.
Condition met

Please let me know if CCc1ccc(-c2cnc(Cl)cc2C)cc1C1=C(O)C(C)(C)C(=O)C(C)(C)C1=O [Compound B-28] shows pest or weed control at 250 g/ha below 90%.
Condition met
